System: M. tuberculosis H37Rv growth inhibition, 7H9 media
test_details: M. tuberculosis growth inhibition, HTS (AID 449762);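 note: bacterial growth assessed after seven days of incubation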
experimental_conditions: measured here: IC90 growth inhibition
Inconclusive results are not listed.
reported_metric: IC90 (µM)
Reply with just the number (in µM).

Noted for "O=C(CCl)Nc1cn(-c2ccccc2)nc1-c1ccccc1" : its IC90 reads 1.15

For reference, reported IC90 for "Cc1cc(Br)ccc1NC(=O)c1cnc(N2CCN(c3ccccn3)CC2)c2ccccc12" stands at 3.49

"CN(CCCCCCCCCCN(C)C(=O)Oc1cccc([N+](C)(C)C)c1)C(=O)Oc1cccc([N+](C)(C)C)c1" yielded IC90 of 4.04

Per the record, "O=C(Oc1ccc2ccccc2c1)c1cncc(Br)c1" has IC90 of 60.3

// recorded IC90 for "c1ccc(-c2cn3c(n2)CCc2ccc4cccnc4c2-3)cc1" : 41.2

The reported IC90 of the molecule "C/C(=N\NC(=O)c1nnn(-c2nonc2N)c1CN(C)c1ccccc1)c1ccccn1" was 15.7

Recorded result, CCOC(=O)C(C)Sc1nc(-c2cccs2)ccc1C#N (centres undefined) , IC90: 50.8

====

System: M. tuberculosis H37Rv growth inhibition, 7H9 media
test_details: M. tuberculosis growth inhibition, HTS (AID 449762);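 note: bacterial growth assessed after seven days of incubation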
experimental_conditions: measured here: IC90 growth inhibition
Inconclusive results are not listed.
Provide the reported IC90 of each item.
Kindly provide the numeric value in µM only, without the unit symbol.

Recorded result, "COC(=O)c1ccc(Cn2cc(C(F)(F)F)cc([N+](=O)[O-])c2=O)cc1" , IC90: 23.7

The reported value for "O=[N+]([O-])c1cc(-c2ccc(/C=N\n3cnnc3)o2)cc([N+](=O)[O-])c1" in terms of IC90 is 1.86

Sample "C[Se]C[C@@H](N)C(=O)O" ; IC90 observed: 69.6

Record summary for "O=C(N[C@H]1CCC(=O)N(CCSc2ccc(Br)cc2)CC1)OCc1ccccc1" : reported IC90 = 28.6

Consider "COc1ccc(-c2ccc(OC)c([C@H]3[C@@H]4C=CCC[C@@]4(C)C(=O)N3Cc3ccccc3)c2)cc1OC" . Its measured IC90 is 24.8

# IC90 (compound: "CCOc1cccc(C=Nc2cc(C)cc(C)c2O)c1O" ) is 29.2

// "Cc1ccn2c(NC3CCCCC3)c(-c3cccc(-c4cccc(Cl)c4)c3)nc2c1" : IC90 value = 27

Recorded result, "Cc1cc(=O)n2cccc(O)c2n1" , IC90: 15.6

====

For each record, write down the corresponding IC90.
System: M. tuberculosis H37Rv growth inhibition, 7H9 media
test_details: M. tuberculosis growth inhibition, HTS (AID 449762);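 note: bacterial growth assessed after seven days of incubation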
experimental_conditions: measured here: IC90 growth inhibition
Inconclusive results are not listed.
Kindly provide the numeric value in µM only, without the unit symbol.

Reported IC90 for "O=C1NCC(O)=C1C=Nc1ccccc1O" was 6.49

Just so you know, measured IC90 for "Nc1nc(CN2CCN(c3ccccc3F)CC2)nc(N2CCCc3ccccc32)n1" came out at 14

What the record says about "COC(=O)c1ccc(/C=C/c2c(-c3ccsc3)oc3ccc(N4CCOCC4)cc23)cc1" : IC90 is 41.2

Briefly, IC90 measured for "CCCCCCCCCCOC(=O)Cn1c(COc2ccc(Cl)cc2)[n+](C)c2ccccc21" : 13.3

Source of measurements: PubChem BioAssay AID449762
